B1: PhoQ; a variant is named by its letters at X, in order, P23837 (parent)
chain: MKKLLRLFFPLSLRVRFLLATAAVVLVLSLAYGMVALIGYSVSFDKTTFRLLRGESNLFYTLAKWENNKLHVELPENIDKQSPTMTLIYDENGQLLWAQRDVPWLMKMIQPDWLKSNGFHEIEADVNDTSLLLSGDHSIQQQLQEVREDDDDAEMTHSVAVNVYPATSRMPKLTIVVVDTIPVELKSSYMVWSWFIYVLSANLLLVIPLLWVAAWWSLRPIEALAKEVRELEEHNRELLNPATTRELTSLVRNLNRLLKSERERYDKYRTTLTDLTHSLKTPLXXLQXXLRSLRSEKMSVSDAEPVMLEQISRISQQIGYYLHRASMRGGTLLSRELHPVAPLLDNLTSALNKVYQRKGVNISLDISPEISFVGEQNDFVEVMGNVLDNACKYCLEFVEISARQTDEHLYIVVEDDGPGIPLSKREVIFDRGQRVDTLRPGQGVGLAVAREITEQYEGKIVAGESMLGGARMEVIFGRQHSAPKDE

# Variants of: B1
# assay_protocol: enrichment ratio after two sorts for PhoP signalling (ratio (wild type AVST 3.29)); higher = more functional
# protocol_conditions: with PhoP (E. coli)
The full ranking holds about 140,000 sequences; the median of “enrichment ratio after two sorts for PhoP signalling” is about 0, and the highest 2% start at about 11. This excerpt belongs to a sample that is enriched for the highest values.
experimental_endpoint: enrichment ratio
Reply with the value as a number alone.

> print(dat)
   mutation.notation  value.observed
1               ASWL            5.05
2               ASCE            4.22
3               ASIT            9.21
4               ASCC            18.2
5               ASCS            4.46
6               ASCI            19.9
7               ASIL            19.5

Note: attention shifts to another entry.
Q: For the variant `ASII` , report enrichment ratio.
A: 12.7
